# TEST_METHOD_NOTES: In vivo pharmacokinetics in Sprague-Dawley rats
# PARTICULARS: male, rat, plasma, ip, 10 mg/kg
MEASURED_ATTRIBUTE: half-life (min)

[[record]]
smiles_structure = "O=C(NCCc1cccc(Cl)c1)Nc1ccc(Cl)cc1"
test_value = 37.8


----------
# TEST_METHOD_NOTES: Rat plasma protein binding
# Type: in vitro ADME
MEASURED_ATTRIBUTE: fraction unbound

[[record]]
smiles_structure = "O=C(Nc1ccc(Cl)cc1)Nc1cccc(-c2cccc(N3CCCC3)n2)c1"
measured_attribute = "fraction unbound"
test_value = 0.001


----------
# TEST_METHOD_NOTES: In vivo pharmacokinetics in Sprague-Dawley rats
# PARTICULARS: male, rat, brain, ip, 10 mg/kg
MEASURED_ATTRIBUTE: half-life (min)

[[record]]
smiles_structure = "O=C(NCCc1cccc(Cl)c1)Nc1ccc(Cl)cc1"
measured_attribute = "half-life"
unit_text = "min"
test_value = 54


Ref: paper PMC8969894
